Data credit: patent US20040205843A1

Target: Maize Rb (amino acids 214-866) fused to the Gal4 DNA binding domain (Zm214C) (maize)
Sequence (P04386 1-147): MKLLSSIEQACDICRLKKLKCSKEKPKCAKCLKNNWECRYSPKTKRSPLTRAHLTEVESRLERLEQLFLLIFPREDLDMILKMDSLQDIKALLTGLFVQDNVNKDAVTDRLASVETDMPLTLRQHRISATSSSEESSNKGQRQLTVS
quantity_name: Rep/Rb (Rb binding activity relative to wild type)

1. AL1 FQ118 (Ala13) fused to the Gal4 activation domain (pNSB872) (other) MPSHPKRFQINAKNYFLTYPQCSLSKEESLSQLQALNTPINKKFIKICRELHEDGQPHLHVLIQFEGKYCCQNQRFFDLVSPTRSAHFHPNIQRAKSSSDVKTYIDKDGDTLVWGEAAVDGRSARGGCQTSNDAAAEALNASSKEEALQIIREKIPEKYLFQFHNLNSNLDRIFDKTPEPWLPPFHVSSFTNVPDEMRQWAENYFGKSSAARPERPISIIIEGDSRTGKTMWARSLGPHNYLSGHLDLNSRVYSNKVEYNVIDDVTPQYLKLKHWKELIGAQRDWQTNCKYGKPVQIKGGIPSIVLCNPGEGASYKVFLDKEENTPLKNWTFHNAKFVFLNSPLYQSSTQSS = 23 relative to wild type (100)
2. AL1 AAA136 (Leu) fused to the Gal4 activation domain (pNSB785) (other) MPSHPKRFQINAKNYFLTYPQCSLSKEESLSQLQALNTPINKKFIKICRELHEDGQPHLHVLIQFEGKYCCQNQRFFDLVSPTRSAHFHPNIQRAKSSSDVKTYIDKDGDTLVWGEFQVDGRSARGGCQTSNDLLLEALNASSKEEALQIIREKIPEKYLFQFHNLNSNLDRIFDKTPEPWLPPFHVSSFTNVPDEMRQWAENYFGKSSAARPERPISIIIEGDSRTGKTMWARSLGPHNYLSGHLDLNSRVYSNKVEYNVIDDVTPQYLKLKHWKELIGAQRDWQTNCKYGKPVQIKGGIPSIVLCNPGEGASYKVFLDKEENTPLKNWTFHNAKFVFLNSPLYQSSTQSS = 8 relative to wild type (100)

# input May I ask what Rep/Rb (Rb binding activity relative to wild type) has been recorded for AL1 REK154 (Ala6) fused to the Gal4 activation domain (pNSB759) (other) MPSHPKRFQINAKNYFLTYPQCSLSKEESLSQLQALNTPINKKFIKICRELHEDGQPHLHVLIQFEGKYCCQNQRFFDLVSPTRSAHFHPNIQRAKSSSDVKTYIDKDGDTLVWGEFQVDGRSARGGCQTSNDAAAEALNASSKEEALQIIAAAIPEKYLFQFHNLNSNLDRIFDKTPEPWLPPFHVSSFTNVPDEMRQWAENYFGKSSAARPERPISIIIEGDSRTGKTMWARSLGPHNYLSGHLDLNSRVYSNKVEYNVIDDVTPQYLKLKHWKELIGAQRDWQTNCKYGKPVQIKGGIPSIVLCNPGEGASYKVFLDKEENTPLKNWTFHNAKFVFLNSPLYQSSTQSS ?
# output 69 relative to wild type (100)

# input May I ask what Rep/Rb (Rb binding activity relative to wild type) has been recorded for AL1 E--N140 + KEE146 (Ala4+5) fused to the Gal4 activation domain (pNSB757) (other) MPSHPKRFQINAKNYFLTYPQCSLSKEESLSQLQALNTPINKKFIKICRELHEDGQPHLHVLIQFEGKYCCQNQRFFDLVSPTRSAHFHPNIQRAKSSSDVKTYIDKDGDTLVWGEFQVDGRSARGGCQTSNDAAAAALAASSAAAALQIIREKIPEKYLFQFHNLNSNLDRIFDKTPEPWLPPFHVSSFTNVPDEMRQWAENYFGKSSAARPERPISIIIEGDSRTGKTMWARSLGPHNYLSGHLDLNSRVYSNKVEYNVIDDVTPQYLKLKHWKELIGAQRDWQTNCKYGKPVQIKGGIPSIVLCNPGEGASYKVFLDKEENTPLKNWTFHNAKFVFLNSPLYQSSTQSS ?
# output 45 relative to wild type (100)

# input May I ask what Rep/Rb (Rb binding activity relative to wild type) has been recorded for AL1 RS-R125 (Ala1) fused to the Gal4 activation domain (pNSB786) (other) MPSHPKRFQINAKNYFLTYPQCSLSKEESLSQLQALNTPINKKFIKICRELHEDGQPHLHVLIQFEGKYCCQNQRFFDLVSPTRSAHFHPNIQRAKSSSDVKTYIDKDGDTLVWGEFQVDGAAAAGGCQTSNDAAAEALNASSKEEALQIIREKIPEKYLFQFHNLNSNLDRIFDKTPEPWLPPFHVSSFTNVPDEMRQWAENYFGKSSAARPERPISIIIEGDSRTGKTMWARSLGPHNYLSGHLDLNSRVYSNKVEYNVIDDVTPQYLKLKHWKELIGAQRDWQTNCKYGKPVQIKGGIPSIVLCNPGEGASYKVFLDKEENTPLKNWTFHNAKFVFLNSPLYQSSTQSS ?
# output 20 relative to wild type (100)
